In this section, each of the binders is paired with its reported koff.
- Tested On: T1, human IL-4Rα (SPR target) (human, UniProt P24394 26-232, limits assumed)
- T1 construct: also called recombinant human IL-4Rα-Fc
- T1 sequence (looked up): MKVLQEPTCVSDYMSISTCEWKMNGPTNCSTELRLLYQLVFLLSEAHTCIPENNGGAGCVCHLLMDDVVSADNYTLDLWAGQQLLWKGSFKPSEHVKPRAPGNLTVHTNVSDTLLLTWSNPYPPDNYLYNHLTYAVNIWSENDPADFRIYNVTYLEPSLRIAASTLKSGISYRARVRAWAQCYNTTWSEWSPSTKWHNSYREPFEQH
- Assay Overview: SPR (Biacore 3000), periplasmic Fab over CM5 chip coated with human IL-4Rα
Reply with just the number (in s⁻¹).

Binder	Recorded Result
152A07 Fab (variant of 4RMP3D6) (Fab, V domains shown, also called VH152A07) VH: QVQLQESGGGLVQPGGSLRLSCAASGFTFSSYSLTWVRQAPGKGLEWVSTIKARGGTTLYADSVKDRFTISRDNAKNTLYLLMNSLKPEDTAVYYCAKPLYSNLAGDLGSWGQGTTVTVSS VL: DIQMTQSPSSLSASLGDRVTITCQASQSISSYLAWYQQKPGQAPKLLIYGGSRLQTGVPSRFSGSGSGTSFTLTISGLETEDLATYYCLQDYSWPLTFGQGTKLEIK	0.00069
152B10 Fab (variant of 4RMP3D6) (Fab, V domains shown, Fab from periplasmic extract, with CH1 and CK constant domains; also called VH152B10) VH: QVQLQESGGGLVQPGGSLRLSCAASGFTFSSYSLTWVRQAPGKGLEWVSTIKARGGTTLYADSVKDRFTISRDNAKNTLYLLVNSLKPEDTAVYYCAKPLYNNLAGDFGSWGQGTTVTVSS VL: DIQMTQSPSSLSASLGDRVTITCQASQSISSYLAWYQQKPGQAPKLLIYGGSRLQAGVPSRFSGSGSGTSFTLTIGGLETEDLATYYCQQDYSWPLTFGQGTKLEIK	0.0012

Now for another entry.
Prompt: Tell me the measured koff of 153A11 Fab (variant of 4RMP3D6) (Fab, V domains shown, Fab from periplasmic extract, with CH1 and CK constant domains; also called VH153A11) VH: QVQLQESGGGLVQPGGSLRLSCAASGFTFSSYSLTWVRQAPGKGLEWVSTIKARGGTTLYADSVKDRFTISRDNAKNTLYLQMNSLKPEDTAVYYCAKPLYSNLAGDFGSWGQGTTVTVSS VL: DIQMTQSPSSLSASLGDRVTITCQASQSISSYLAWYQQKSGQAPKLLIYGGSRLQTGVPSRFSGSGSGTSFTLTISGLETEDLATYYCLQVYSWPLTFGQGTKLEIK , please.
Completion: 0.002
